Experiment: Probe fluorescence ratio response to arachidonic acid relative to ADIFAB2
Format: binding
Conditions: arachidonic acid; response relative to ADIFAB2
Quantity name: DR/DR AA

Consider the following illustrative entries.
18K, 72A (protein, listed as Rattus norvegicus, PEPTIDE (1)...(131) wild-type rat intestinal fatty acid binding protein) AFDGTWKVDRNENYEKFKEKMGINVVKRKLGAHDNLKLTITQEGNKFTVKESSNFRNIDVVFELGVDFAYSAADGTELTGTWTMEGNKLVGKFKRVDNGKELIAVREISGNELIQTYTYEGVEAKRIFKKE | 0.800
31I, 72A (protein, listed as Rattus norvegicus, PEPTIDE (1)...(131) wild-type rat intestinal fatty acid binding protein) AFDGTWKVDRNENYEKFMEKMGINVVKRKLIAHDNLKLTITQEGNKFTVKESSNFRNIDVVFELGVDFAYSAADGTELTGTWTMEGNKLVGKFKRVDNGKELIAVREISGNELIQTYTYEGVEAKRIFKKE | 0.303
119L, 72A (protein, listed as Rattus norvegicus, PEPTIDE (1)...(131) wild-type rat intestinal fatty acid binding protein) AFDGTWKVDRNENYEKFMEKMGINVVKRKLGAHDNLKLTITQEGNKFTVKESSNFRNIDVVFELGVDFAYSAADGTELTGTWTMEGNKLVGKFKRVDNGKELIAVREISGNELIQTYTLEGVEAKRIFKKE | 1.021
72T 73W 74L (protein, listed as Rattus norvegicus, PEPTIDE (1)...(131) wild-type rat intestinal fatty acid binding protein) AFDGTWKVDRNENYEKFMEKMGINVVKRKLGAHDNLKLTITQEGNKFTVKESSNFRNIDVVFELGVDFAYSTWLGTELTGTWTMEGNKLVGKFKRVDNGKELIAVREISGNELIQTYTYEGVEAKRIFKKE | 2.721
104F1, 72A (protein, listed as Rattus norvegicus, PEPTIDE (1)...(131) wild-type rat intestinal fatty acid binding protein) AFDGTWKVDRNENYEKFMEKMGINVVKRKLGAHDNLKLTITQEGNKFTVKESSNFRNIDVVFELGVDFAYSAADGTELTGTWTMEGNKLVGKFKRVDNGKELIFVREISGNELIQTYTYEGVEAKRIFKKE | 0.66

Please look at the following molecule next.
INPUT: Which DR/DR AA reading was recorded for the molecule 72T 73V 74A (protein, listed as Rattus norvegicus, PEPTIDE (1)...(131) wild-type rat intestinal fatty acid binding protein) AFDGTWKVDRNENYEKFMEKMGINVVKRKLGAHDNLKLTITQEGNKFTVKESSNFRNIDVVFELGVDFAYSTVAGTELTGTWTMEGNKLVGKFKRVDNGKELIAVREISGNELIQTYTYEGVEAKRIFKKE ?
OUTPUT: 2.180

Ref: patent US20060257938A1
